target-under-test: Nav1.7 (or SCN9A) channel; HEK cells stably transfected with hSCN9A (Homo sapiens, UniProt Q15858)
Construct: expressed in transfected cells
Sequence (Q15858 whole entry): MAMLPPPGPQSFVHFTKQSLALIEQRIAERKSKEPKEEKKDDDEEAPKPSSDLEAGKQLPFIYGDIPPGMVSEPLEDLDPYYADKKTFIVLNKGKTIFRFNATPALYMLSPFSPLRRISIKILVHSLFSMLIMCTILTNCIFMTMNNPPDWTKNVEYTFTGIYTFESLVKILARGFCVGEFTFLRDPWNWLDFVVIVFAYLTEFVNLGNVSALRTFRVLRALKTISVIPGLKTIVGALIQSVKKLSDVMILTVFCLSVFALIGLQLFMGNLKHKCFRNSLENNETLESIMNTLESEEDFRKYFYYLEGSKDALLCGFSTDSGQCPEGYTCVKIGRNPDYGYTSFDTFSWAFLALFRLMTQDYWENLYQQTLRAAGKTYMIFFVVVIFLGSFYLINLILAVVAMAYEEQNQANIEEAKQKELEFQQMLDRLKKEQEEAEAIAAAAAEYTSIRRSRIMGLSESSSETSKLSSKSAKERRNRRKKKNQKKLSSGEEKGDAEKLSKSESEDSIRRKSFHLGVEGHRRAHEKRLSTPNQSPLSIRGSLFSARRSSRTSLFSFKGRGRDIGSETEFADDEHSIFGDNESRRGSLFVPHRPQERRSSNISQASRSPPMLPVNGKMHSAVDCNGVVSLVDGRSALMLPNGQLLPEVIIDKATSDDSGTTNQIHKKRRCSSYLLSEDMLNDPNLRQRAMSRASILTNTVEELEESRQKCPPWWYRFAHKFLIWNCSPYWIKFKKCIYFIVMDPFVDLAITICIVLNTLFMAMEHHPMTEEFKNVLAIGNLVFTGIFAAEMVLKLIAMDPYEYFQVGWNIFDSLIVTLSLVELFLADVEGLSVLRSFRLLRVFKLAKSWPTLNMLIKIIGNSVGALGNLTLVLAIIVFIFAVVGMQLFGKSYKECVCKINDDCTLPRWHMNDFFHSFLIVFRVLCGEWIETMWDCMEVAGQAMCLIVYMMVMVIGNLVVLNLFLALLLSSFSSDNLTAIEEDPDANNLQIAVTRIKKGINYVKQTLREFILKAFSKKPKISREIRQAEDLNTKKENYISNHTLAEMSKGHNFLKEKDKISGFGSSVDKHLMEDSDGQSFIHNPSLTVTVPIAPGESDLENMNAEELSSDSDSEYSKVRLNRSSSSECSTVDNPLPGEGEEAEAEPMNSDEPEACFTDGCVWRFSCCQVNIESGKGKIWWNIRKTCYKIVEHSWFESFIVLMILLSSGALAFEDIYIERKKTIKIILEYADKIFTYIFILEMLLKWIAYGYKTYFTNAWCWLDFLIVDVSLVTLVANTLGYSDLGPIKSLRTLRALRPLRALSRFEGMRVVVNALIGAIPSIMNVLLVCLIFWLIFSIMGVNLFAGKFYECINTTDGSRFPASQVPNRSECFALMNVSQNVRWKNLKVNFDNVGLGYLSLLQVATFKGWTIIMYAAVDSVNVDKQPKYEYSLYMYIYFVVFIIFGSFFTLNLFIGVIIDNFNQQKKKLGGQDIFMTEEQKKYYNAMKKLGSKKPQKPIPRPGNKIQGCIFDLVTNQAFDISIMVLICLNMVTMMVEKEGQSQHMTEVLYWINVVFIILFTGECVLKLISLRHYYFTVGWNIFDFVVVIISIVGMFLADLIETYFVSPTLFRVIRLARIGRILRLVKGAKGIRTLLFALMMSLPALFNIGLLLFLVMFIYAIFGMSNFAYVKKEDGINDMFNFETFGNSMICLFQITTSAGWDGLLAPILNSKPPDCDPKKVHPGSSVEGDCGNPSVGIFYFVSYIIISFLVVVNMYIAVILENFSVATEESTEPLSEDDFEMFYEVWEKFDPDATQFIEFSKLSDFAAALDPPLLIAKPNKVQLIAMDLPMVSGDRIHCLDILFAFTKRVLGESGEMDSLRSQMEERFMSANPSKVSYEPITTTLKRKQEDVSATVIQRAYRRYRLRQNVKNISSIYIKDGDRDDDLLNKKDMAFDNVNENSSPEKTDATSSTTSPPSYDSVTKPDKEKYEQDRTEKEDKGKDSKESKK
experiment-notes: Nav1.7 block, PatchXpress 7000 automated whole-cell voltage clamp, estimated IC50 (EIC50)
Format: cell-based
conditions-used: estimated IC50; hSCN9A HEK cells, PatchXpress platform; Examples 283-814
We begin with a simple list: items and their reported IC50.
measure: IC50 (nM)

>>> observed("Cn1nccc1-c1cc(OC(F)(F)F)ccc1Oc1ccc(S(=O)(=O)Nc2nccs2)cc1F")
69
>>> observed("N#Cc1cc(S(=O)(=O)Nc2nccs2)ccc1Oc1ccc(C(F)(F)F)cc1-c1cn[nH]c1")
15
>>> observed("N#Cc1cc(S(=O)(=O)Nc2nccs2)ccc1Oc1ccc(Cl)c(Cn2cncn2)c1")
2200
